target: Bovine κ-casein labelled with EDANS-C2-maleimide (donor) or DABCYL-C2-maleimide (acceptor) (bovine); experiment: FRET or BRET; time-resolved FRET titration; donor (EDANS) κ-casein constant at 0.01% (5 μM), acceptor (DABCYL) κ-casein 0.01-0.38% (5-200 μM); in H2O, 293 K; indefinite isodesmic association, adding a monomer to an associate

>  <SUBSTANCE>
Bovine κ-casein labelled with EDANS-C2-maleimide (donor) or DABCYL-C2-maleimide (acceptor) (natural protein)

>  <Kd>
9.5 µM

$$$$
